- test name: yeast display, Sf9 membrane polyspecificity reagent, FACS + sequencing; frameworks hold sequencing errors

| item sequence | polyreactivity (PSR sort gate) |
| --- | --- |
| QVQLVESGGGLVQAGGSLRLSCAASVRTFWYNAMGWYRQAPGKERELVAVISSGAITYYADSVKGRFTISRDNAKNTVYLQMNSLKPEDTAVYYCNAQRRGTYYWGQGTQVTVSS | high polyreactivity |
| QVQLVESAGCLVQAGGSLRLSCDASGIIFKVYAMGWYSQAPGKEREWVAAISWSGSSTYYADTVKGRFTISRDKAKNTVYLQMNSLKPEDTAVYYCAAYSVARSMGYWGQGTQVTVSS | high polyreactivity |

* * *

- test name: yeast display, Sf9 membrane polyspecificity reagent, FACS + sequencing; frameworks hold sequencing errors

| item sequence | polyreactivity (PSR sort gate) |
| --- | --- |
| QVQLVESGGGLVQAGGSLRLSCAASGYLWYYAMGWYRQSPGKERELVAAICWGGGSTFFADSVKGRFTISRDNAKNTVYLQMNSLKPEDTAVYYCAAVDAVGPTSHAMFYWGQGTQVTGSS | low polyreactivity |
| QVQLVESGGGLVNAGGSLRLSCAASGSTFYLYHMGWYRQAPGKEREFFARITWSGGSTYYADSVKGRFTLSRDNAKNTVYLQMNSLKPEDTAVYYCNKVYGQRNSYPDYDYWGQGSQVTVSS | high polyreactivity |
| QVQLVESGGGLVQAGGSLRLSCAASGLTLYKNGMGWYRQAPGKERELVAVISRSGGRTYYADSVKGRFTISRDNAKNTVYVQMNSLKPEDTAVYYCAARQYGPRYTYYYWGQGTQVTVSS | high polyreactivity |
| QVQLVESGGGLVQAGGSLRLSCAASGSTFYPNAMGWYRQAPGKERELVAAITSGGSTNYADSVKGRFTISRDNAKNTVYLQMNSLKPEDTAVYYCAAVGKYRIRSDYWGQGTQVTVSS | low polyreactivity |
| QVQLVESGGGLVQAGGSLRLSCAASGRIFPWNTMGWYRQAPGKERELVAGINNGDRTYYADSVKGRFTISRDNENNTVYLQMNSLKPEDTAVYYCAARSPPSAYTYTTWEYDYWGQGTQVTVSS | low polyreactivity |
| QVQLVESGGGLVQAGGSLPLSCAASGSILYFYAMGWYRQSPGKERELVAAISWTGGSTYYADSVKGRFTISRDNAKNTVYLQMNSLKPEDTAVYYCAAELWYEGYDYWGQGTQVTVSS | high polyreactivity |
| QVQRVESGGGLVQAGGSLRLSCAASGRTFRYYAMGWYRQAPGKERELVAAITSGGSTSYADSVKGRFTISRDNAKNTVYLQMNSLKPEDTAVYYCAAVPAGLWATYPQFRYGYWGQGTQVTVSS | high polyreactivity |
| QVQLVESGGGLVQAGGSIRLSCAASGRTFDSNAIGWYRQAAGKEWQLVAAISCSGDTTYDADTVKGRFTISRDNAKNTVYLQINILKPEDTAVYYCAADHDSYDSGYDYWGQGTQGTVSS | low polyreactivity |
| KVQLVESGGGLVQAGGSLRISCAASGRICWGYVMGWYRQAPGKERELVAAISSGGDTHYADSVKGRFTISRDNAKNTVYLQMNSLKPEDTGVYYCAARPNFTPYEYGYWGQGTQVTVSS | low polyreactivity |
| QVQLVESGGGLVQAGGSLRLSCAASGRIQSVYAMGWYRQAPGKERELVAAIDYSGGSTNYADSVKGRFTISRDNGKNTVYLQMNSLKPEDTAVYYCNREGGAIAWRYLLEYLYSWGQGTQVTVSS | low polyreactivity |
| QVQLVESGGGLVQAGGSLRLSCADSGITLYYNAMGWYRQAPGKERELVAAISWSGDSTYYADSVKGRFTISRDNAKNTVYLQMNSLKPEDTAVYYCAADRYTYYHYAWYEYWGQGTQVTVSS | low polyreactivity |

* * *

- test name: yeast display, Sf9 membrane polyspecificity reagent, FACS + sequencing; frameworks hold sequencing errors

| item sequence | polyreactivity (PSR sort gate) |
| --- | --- |
| QVQLVESGGGLVQAGGSLRLSCAASGFTFITNAMGWYRQAPGKERELVASISIGGSTNYADSVKGRFTISRDNAKNTVYLQMNSLKPEDTAVYYCAARVYRRLFLPGRYGRPLGYWGQGTQVTVSS | high polyreactivity |
| QVQHVESGGGLVQAGGSLRLSCAAYGRTLDVNAMGWYRQAPGKERELVAAIDWGVGTTYYADSVKGRFTISRDNAKNTVYLQMNSLKPEDTAVYYCAVEVYYSVYGYPVQYYYWGQGTQVTVSS | high polyreactivity |

* * *

- test name: yeast display, Sf9 membrane polyspecificity reagent, FACS + sequencing; frameworks hold sequencing errors

| item sequence | polyreactivity (PSR sort gate) |
| --- | --- |
| QVQLVESVGGLVQAGGSLRLSCAASGFTFYKNAMGWYRQATGKERELVAPITKSGGRTYYADSVKGRFTISRDYAKNTVYLQMNCLKPEDNAVYYCAADISPFGRQPCVIRYSWGQGTQVTVSS | high polyreactivity |
| QVQLVESGGGLVQAGGSLRLSCAASGSTFPVYAMGWYRQAPGKERELVAAITSGVSTNYADSVKGRFTISRDNAKNTVYLQMNSLKPEDTAFYYCAKDFGLLPIRDDYWGQGTQVTVSS | low polyreactivity |
| QVQLVESGGGLVQAGGSLRLSCAASGRILARYTMGWYRQAPGKERELVAAISRSSGSTYYADSVKGRFTISRDTAKNTVYLQMNSLKPEDTAVYYCAAYLSYWGQGTQVTVSS | high polyreactivity |
| QFQLVESGGGLVQAGGSLRLSCAASGSISDIYAMGWYRQAPGKERELVASISSGGITNYADSVKGRFTISRDNAKNTVYLQMNSLKPEDTAVYYCAKDRYHISFFYQMEYWGQGTQVTVSS | low polyreactivity |
| QVQLVESGGGLVQVGGSLRLSCAASGRTFWWYAMGWYRQAPGKERELVAAITRSGGSTYYADSVKGRFTISRDNAKYTVYLQMNSLKQEDTAVYYCAASHYGLLEYWGQGTQVTVSS | low polyreactivity |
| QVQLVESGGGLVQAGGSLRLSCAASGRTFVYYAMVWSRQAPGKEREFVAAISRSGGRTSYADSVKGRFTISRDNAKNTVYLQMNSLKPEDTAVYYCAAENRTQPTSREYYWGQGNQVTVSS | high polyreactivity |
| QVQLVESGGGLVQAGGSRLICAASGLIFIWYTMGWYRQAPGKERELVAAIDSSGGNTYYADSLKGRFSISRDNAKNTVYLQMNSLKPEDTAVYYCAKDVGHGAGNLMGYWGQGTQVTVSS | low polyreactivity |
| QVQLVESGGGLVQAGGSLRLSCAASGSISYVNAMGWYRQAPGKERELVAAITGGGSTNYADSVKGRFTISRDNAKNTVYLQMNSLKPEDTAVYYCAADADTDVVYILQEYDYWGQGTQVTVSS | low polyreactivity |
| QVQLVESGGGLVQSGGSLRLSCDPSGSIFSHNAMGWYRQAPGKERELVAAITASSGSTYYADSVKGRFTISRDNAKNTVYLQMNSLKPEVNAVYFCARVSRKRHQQDGKYGYWGQGTQVTVSS | high polyreactivity |
| QVQLVESGGGLVQAGGSLRLSCAASGRTIAAYAMGWYRQAPGKERELVAAISRSGGSTYYADSVKGRFTISRDNAKNTVYLQMNSLKPEDTAVYYCAAYYIVSSLFGYWGQGTQVTVSS | high polyreactivity |
| QVQLVESGGGVVQAGGTLLLICAASGSTFIVNAMVWYRQAPRKERELVAAITGSGGNTYYADSVKGRFTISRDNAKNTVYLQINTLKPEDTAVYYCAAETYYGRIYWYIRDYWGQGTQVSVSS | low polyreactivity |
| QVQLVESGGGLVQAGGSLRLSCAASGRTFAYNTMGWYRQAPGKERELVAAITSGGNTYYADSVKGRFTISRDNAKNTVYLQMNSLKPEDTAVYYCARYFTARLEGGYWGQGTQVTVSS | high polyreactivity |
| QVQLVESGGGLVQAGGSLRLSCAASGFTLLPYAMGWYRQAPGKERELVAAISRRGVSTYYADSVKGRFTISRDNAKNTVYLQMNSLIPEDTSVYYWASRYFTGYGLRTQFYFWGQGTQVTVSS | high polyreactivity |
| QVQLVESGGGLVQAGGSLRLSCAASGSTFAGNGMGWYRQAPGKERELVAGIDVTGGSTYYADSVKGRFTISRDNAKNTVYLQMNRLKPEDTAVYYCNARYVYHSSFAGFDYWGQGTQVTVSS | low polyreactivity |
| QVQLVESGGGIVQAGGSLRLSCAASGSTLDYHDMGWYRQAPGKEREFVAAIRSNDGSTYYADSVKGRFTISLDNAKNTVYLQMNSLKPEDTAVYYCNKDVWDGYDWPEFDYWGQGTQVTVSS | low polyreactivity |
| QVQLVESGGGLDQAGGSLRLSCAASGSTFYYNAMGWYRQAPGKERELVAAISSDGSTNYADSVKGRFTISRDNAKNTVYLQMNSLKPEDTAVYYCAKKDFYFAPSPGYYRSRDYWGQGTQVTVSS | low polyreactivity |
| QVQLVESGGGLVQAGGSLRLSCAASGIIFPGYAMGWYRQAPGKERELVAAISSGGDTYYADSVKGRFTISRDNAKNTVYLQMNSLKPEDTAVYYCAAEYGLYAPGYYYWGQGTQVTVSS | low polyreactivity |
| QVHLVESGGGLVQAGGSLRLSCAASGFTFNRYAMGWYRQAPGKERELVATISSGGNTNYADSVKGRFTISRDNAKKTVYLQMNSLKPEDTAVYYCNADRWFHYYSYNYWGQGTQVTVSS | high polyreactivity |
| QVQLVESGGGLVQSGGSLRLSCAASGRTFYYYTMGWYRPAPGKVRELVAAIYRVGSTYYADSVKGRFTISRDNAKNTVYLQMNSLKPEDTADYYCNAVLRFGWYWVDYWGQGTQVTVSS | high polyreactivity |
| QVQLVESGGGLVQAGGSLRLSCAASGSTFRRYAMGWYRQAPGKEREISTSDGSTYYADSVKGRFTISRDNAKNTVYLQMNSLKPEDTAVYYCATEIEYYVGSVPDMGYWGQGTQVTVSS | low polyreactivity |
| QVQLVESGGGLVQAGGSLRLSCAASGSIFNPYDMGWYRQAPGKERELVAAIDWSGGSTYYADSVKGRFTISRDNAKNTVYLQMNSLKPEDTAVYYCNAESYQDTLFGADNDYDYWGQGTQVTVSS | low polyreactivity |
